Provide the reported CD80 (FoB) of each item.
Target: T1, full-length untagged human GPNMB expressed on cells (human, UniProt Q14956 23-572)
T1 sequence: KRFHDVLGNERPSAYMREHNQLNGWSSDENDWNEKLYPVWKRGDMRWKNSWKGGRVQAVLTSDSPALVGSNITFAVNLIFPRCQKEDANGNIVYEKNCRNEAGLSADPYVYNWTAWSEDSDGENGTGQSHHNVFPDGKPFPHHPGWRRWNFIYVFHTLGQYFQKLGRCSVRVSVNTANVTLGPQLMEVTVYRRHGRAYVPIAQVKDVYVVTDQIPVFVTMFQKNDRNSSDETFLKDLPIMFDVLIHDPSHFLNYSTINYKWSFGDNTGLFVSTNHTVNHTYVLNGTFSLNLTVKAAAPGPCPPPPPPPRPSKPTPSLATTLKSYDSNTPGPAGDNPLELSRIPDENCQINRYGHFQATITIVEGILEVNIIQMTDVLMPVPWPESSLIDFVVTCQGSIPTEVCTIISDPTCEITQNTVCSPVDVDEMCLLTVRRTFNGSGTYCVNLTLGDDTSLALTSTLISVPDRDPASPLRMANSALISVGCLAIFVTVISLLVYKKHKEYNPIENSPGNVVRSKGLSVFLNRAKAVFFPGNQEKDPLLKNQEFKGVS
Test: cell-based or functional assay
Provide a numeric answer, followed by its unit.

### Prompt I'd like to know its CD80 (FoB). The binder in question is anti-GPNMB antibody GPN-01 (antibody, human IgG1, V domains shown, chimeric) VH: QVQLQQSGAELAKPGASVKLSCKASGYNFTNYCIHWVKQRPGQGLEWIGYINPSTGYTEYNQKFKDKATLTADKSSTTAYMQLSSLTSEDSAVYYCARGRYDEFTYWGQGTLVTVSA VL: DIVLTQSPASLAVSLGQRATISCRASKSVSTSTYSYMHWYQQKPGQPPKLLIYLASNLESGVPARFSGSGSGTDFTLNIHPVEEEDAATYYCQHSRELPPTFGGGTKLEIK
### Response 1.36 FoB

### Prompt I'd like to know its CD80 (FoB). The binder in question is anti-GPNMB antibody GPN-48 (antibody, human IgG1, V domains shown, chimeric) VH: QVQLQQSGPELVKPGASVKLSCRASGYGFSSFWMNWVKQRPGKGLEWIGRIYPGKGDTLYNGKFKDKATLTADESSSTAYMQLSSLTSEDSAVYFCARSIYYYDYWYFDVWDTGTTVTVSS VL: DIVMTQSHKFMSTSVGDRVNITCKASQDVNSAIAWYQQKPGQSPKLLIYSASYRFIGVPDRFTGSGSGTGFTFTISSVQAEDLAVYYCQQHYTTPLTFGAGTKLELK
### Response 1.06 FoB

### Prompt I'd like to know its CD80 (FoB). The binder in question is anti-GPNMB antibody GPN-38 (antibody, human IgG1, V domains shown, chimeric) VH: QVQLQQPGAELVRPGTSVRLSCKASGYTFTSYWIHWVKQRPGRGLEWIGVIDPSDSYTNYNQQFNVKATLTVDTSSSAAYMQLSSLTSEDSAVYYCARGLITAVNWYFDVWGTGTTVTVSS VL: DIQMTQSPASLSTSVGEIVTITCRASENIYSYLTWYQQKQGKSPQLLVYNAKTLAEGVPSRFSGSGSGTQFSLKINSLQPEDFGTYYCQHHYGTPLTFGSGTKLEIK
### Response 1.03 FoB

### Prompt I'd like to know its CD80 (FoB). The binder in question is anti-GPNMB antibody GPN-43 (antibody, human IgG1, V domains shown, chimeric) VH: EVQLQQSGPELVKPGASVKISCKASGYTFTDYYMNWVRQSHGKSLEWIGDINPYHGGSTYNQKIKVKATLTVDKSSSTAYMELRSLTSEDSAVYYCARNWPYFDYWGQGTTLTVSS VL: DIQMTQSPASLSASVGETVTITCRASENIYSFLVWYQQKQGKSPQLLVYNAKTLAEGVPSRFSGSGSGTQFSLKISSLQPEDFGSYYCQHHFGTPPYTFGGGTKLEIK
### Response 1.08 FoB

### Prompt I'd like to know its CD80 (FoB). The binder in question is anti-GPNMB antibody GPN-30 (antibody, human IgG1, V domains shown, chimeric) VH: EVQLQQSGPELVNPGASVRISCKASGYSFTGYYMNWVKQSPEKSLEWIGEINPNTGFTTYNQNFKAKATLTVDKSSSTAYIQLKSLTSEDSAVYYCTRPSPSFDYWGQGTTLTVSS VL: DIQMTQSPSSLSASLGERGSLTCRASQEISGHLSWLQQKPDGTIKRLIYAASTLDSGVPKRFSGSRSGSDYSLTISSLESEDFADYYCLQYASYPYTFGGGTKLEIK
### Response 1.34 FoB

### Prompt I'd like to know its CD80 (FoB). The binder in question is anti-GPNMB antibody GPN-22 (antibody, human IgG1, V domains shown, chimeric) VH: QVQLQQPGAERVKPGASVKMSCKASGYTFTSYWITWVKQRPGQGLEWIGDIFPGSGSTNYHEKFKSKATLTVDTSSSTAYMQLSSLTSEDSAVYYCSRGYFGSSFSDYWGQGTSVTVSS VL: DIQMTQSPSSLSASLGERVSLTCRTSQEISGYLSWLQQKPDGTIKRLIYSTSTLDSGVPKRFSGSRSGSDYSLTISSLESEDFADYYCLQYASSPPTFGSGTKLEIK
### Response 1.16 FoB

# credit: patent US20250270343A1
